Values from patent US20100227921A1

assay: Comparative bioavailability after oral administration to rats (plasma LC-MS-MS); type: in vivo; details: male, Sprague Dawley, rat, plasma, po, 10 mg tapentadol free base equiv/kg, oral tapentadol valine carbamate 10 mg tapentadol free base equiv/kg, individual animals 6-10, read-out: Cmax of tapentadol valine carbamate
endpoint.label: Cmax (µg/mL)

In [3]: df
Out[3]:
                                   molecule  endpoint_label  unit_label  quantitative_result
0  CC[C@H](c1cccc(OC(=O)N[C@H](C(=O)O)C(C)C)c1)[C@H](C)CN(C)C (racemic) [Tapentadol valine carbamate]            Cmax       µg/mL               0.0858
